Target: PqsE (Pseudomonas aeruginosa)
Assay: Competitive fluorescence polarization with the BB562 active site probe
Settings: competition with BB562 active site probe for binding to PqsE; one experiment performed in triplicate
pEC50: −log10 of the molar value.
measurement.label: pEC50

{"molecule": "CCC(C)(CNC(=O)Nc1ccc(C(=O)Nc2nccs2)cc1)N1CCOCC1 (stereo not drawn)", "test.target": "PqsE (Pseudomonas aeruginosa)", "measurement.label": "pEC50", "reported.value": 7.03}
{"molecule": "CCC(C)(CNC(=O)Nc1ccc(C(=O)Nc2cccc3cn[nH]c23)cc1)N1CCOCC1 (stereo not drawn)", "test.target": "PqsE (Pseudomonas aeruginosa)", "measurement.label": "pEC50", "reported.value": 6.55}
{"molecule": "CCC(CNC(=O)Nc1ccc(NC(=O)c2cccc3cn[nH]c23)cc1)N1CCOCC1 (stereo not drawn)", "test.target": "PqsE (Pseudomonas aeruginosa)", "measurement.label": "pEC50", "reported.value": 6.56}

----------
Molecular target: PqsE(E182W/NI) (Pseudomonas aeruginosa, UniProt P20581, E182W/R243A/R246A/R247A)
Conditions: read-out: BB562 Binding Kapp; PqsE variant E182W/NI; 2 µM MnCl2; error ND (could not be calculated)

{"item.smiles": "O=C(NCCCn1cc(-c2ccc(NC(=O)c3cccc4cn[nH]c34)cc2)nn1)c1ccc2c(c1)C(=O)OC21c2ccc(O)cc2Oc2cc(O)ccc21", "test.target": "PqsE(E182W/NI) (Pseudomonas aeruginosa, UniProt P20581, E182W/R243A/R246A/R247A)", "Kd [µM]": 4.33}

----------
Biological target: PqsE(E182W) (Pseudomonas aeruginosa, UniProt P20581, E182W)
Conditions: read-out: BB562 Binding Kapp; PqsE variant E182W; 2 µM MnCl2

{"compound": "O=C(NCCCn1cc(-c2ccc(NC(=O)c3cccc4cn[nH]c34)cc2)nn1)c1ccc2c(c1)C(=O)OC21c2ccc(O)cc2Oc2cc(O)ccc21 [BB562]", "test.target": "PqsE(E182W) (Pseudomonas aeruginosa, UniProt P20581, E182W)", "Kd (µM)": 5.73}

----------
Molecular target: PqsE(E280A) (Pseudomonas aeruginosa, UniProt P20581, E280A)
Conditions: read-out: BB562 Binding Kapp; PqsE variant E280A; 2 µM MnCl2

{"item.smiles": "O=C(NCCCn1cc(-c2ccc(NC(=O)c3cccc4cn[nH]c34)cc2)nn1)c1ccc2c(c1)C(=O)OC21c2ccc(O)cc2Oc2cc(O)ccc21", "unit.spec": "nM", "Kd": 210}

----------
Target: PqsE(NI/E280A) (Pseudomonas aeruginosa, UniProt P20581, E280A/R243A/R246A/R247A)
Conditions: read-out: BB562 Binding Kapp; PqsE variant NI/E280A; 2 µM MnCl2
pKd: −log10 of the molar value.

{"compound": "O=C(NCCCn1cc(-c2ccc(NC(=O)c3cccc4cn[nH]c34)cc2)nn1)c1ccc2c(c1)C(=O)OC21c2ccc(O)cc2Oc2cc(O)ccc21 [BB562]", "pKd": 6.17}

----------
Target: PqsE(D73A/E182W) (Pseudomonas aeruginosa, UniProt P20581, D73A/E182W)
Conditions: read-out: BB562 Binding Kapp; PqsE variant D73A/E182W; 2 µM MnCl2; error ND (could not be calculated)
pKd: −log10 of the molar value.

{"item.smiles": "O=C(NCCCn1cc(-c2ccc(NC(=O)c3cccc4cn[nH]c34)cc2)nn1)c1ccc2c(c1)C(=O)OC21c2ccc(O)cc2Oc2cc(O)ccc21", "pKd": 5.09}

Each recorded value in this set is attributed to paper PMC9454246.
